Below is a list of entries, each paired with its recorded protein stability index value.
B1: RSPH3 (parent)
chain: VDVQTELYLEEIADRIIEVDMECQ

Variants of: B1
Test: protein stability index of a GFP-peptide fusion (GPS, HEK-293T) (PSI 1-6); higher = more stable;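 also: lentivirally expressed fusions sorted by FACS into six bins by GFP to DsRed ratio, PSI derived from sequencing read proportions per bin multiplied by bin number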
Conditions: c terminus: a fixed tail appended
assay-endpoint: protein stability index

* E10C | 1.58
* E10P | 3.62
* V19D | 5.01
* I17N | 2.81
* M21F | 1.47
* V3C | 2.35
* Y8Q | 4.25
* V3G | 3.74
* I16T | 4.19
* D2R | 1.76
* Q24P | 3.33
* Q4K | 2.43
* Q24C | 2.32
* E18K | 2.59
* R15C | 1.54
* E11A | 1.95
* D20I | 3.01
* V3Y | 1.85
* Q4Y | 1.66
* E11T | 2.41
* I16Y | 2.57
* Q4N | 1.85
* Y8N | 4
* E18H | 2.31
* D20F | 3.1
* I12R | 4.25
* T5A | 2.3
* E18Q | 1.57
* C23I | 2.23
* I17V | 2.39
* Q4L | 1.97
* D2C | 2.57
* D2I | 2.61
* Q24N | 2.05
* T5R | 3.09
* Q4E | 2.32
* C23Q | 4.31
* D14P | 2.45
* E18A | 2.22
* E18I | 2.01
* I12H | 4.28
* T5K | 3.87
* D14E | 1.92
* Q4A | 2.19
* V3H | 2.4
* E22A | 1.99
* I17H | 2.94
* L7N | 3.96
* V19E | 4.65
* L7E | 4.3
* V19A | 3.81
* V3P | 3.36
* D20G | 1.85
* R15T | 2.56
* M21S | 3.85
* I16W | 2.97
* E11S | 2.02
* C23V | 5.09
* I12N | 4.46
* I16P | 4.93
* L9H | 4.71
* Q4C | 2.29
* Q24S | 2.72
* E10F | 2.25
* C23T | 3.68
* V19Q | 3.76
* I16H | 4.19
* I17G | 4.14
* L9C | 3.4
* D2K | 1.91
* E10S | 2.39
* E10N | 2.06
* V3S | 2.56
* V19K | 4.5
* E6N | 2.18
* L9Y | 2.79
* T5F | 2.96
* E18R | 2.51
* A13N | 3.2
* L9F | 2.21
* L9W | 1.97
* L7Y | 2.34
* T5S | 2.5
* R15A | 2.55
* M21G | 4.38
* I17A | 2.41
* E6L | 1.65
* I17C | 2.58
* C23D | 4.4
* V1M | 2.39
* A13G | 2.95
